# experiment_description: viability loss in pontine glioma line – cell-based, SU-DIPG-XIII, MIPE4.0, CellTiter-Glo, qHTS, dose response (AID 1347061);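 also: cells exposed to compound for 48 hours before readout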
# measurement_setup: CellTiter-Glo ATP luminescence
Results filed as inconclusive are left out. Activity calls are given as the source filed them. The limit is not given here; nearly all actives have AC50 up to about 37 µM.
Classes used: active, inactive

CCC[C@H]1C[C@H](C(=O)N[C@@H]([C@@H]2O[C@@H](SC)[C@@H](O)[C@@H](O)[C@H]2O)[C@H](C)Cl)N(C)C1 ... inactive
N#CC(c1ccnc(NCCc2cccnc2)n1)c1nc2ccccc2s1 (stereo unspecified) ... inactive
c1cncc(CN2CCC(n3ncc4c(N5CCOCC5)nc(-c5ccc6[nH]ccc6c5)nc43)CC2)c1 ... active
CCOC(=O)N1CCN(/[N+]([O-])=N/Oc2ccc([N+](=O)[O-])cc2[N+](=O)[O-])CC1 ... inactive
C=C1C(=O)OC2/C=C(/C)CC/C=C(/C)CCC12 (stereo unspecified) ... inactive
CC(=O)N[C@H]1[C@H](O[C@@H]2c3ccc(c(Cl)c3)Oc3cc4cc(c3O[C@@H]3O[C@H](CO)[C@@H](O)[C@H](O)[C@H]3NC(=O)CCCCCCCC(C)C)Oc3ccc(cc3Cl)C[C@H]3NC(=O)[C@H](N)c5ccc(O)c(c5)Oc5cc(O)cc(c5)[C@H](NC3=O)C(=O)N[C@H]4C(=O)N[C@H]3C(=O)N[C@@H]2C(=O)N[C@@H](C(=O)O)c2cc(O)cc(O[C@H]4O[C@H](CO)[C@@H](O)[C@H](O)[C@@H]4O)c2-c2cc3ccc2O)O[C@H](CO)[C@@H](O)[C@@H]1O ... inactive
